Assay: Cytotoxicity against human HePAD38 cells assessed as reduction in cell viability by CCK-8 assay
Format: toxicity, cell-based

COMPOUND	VALUE UNIT	CC50
CCOC(=O)C1=C(CN2CCN(C(C(=O)O)c3ccc(OC)cc3)CC2)NC(c2nccs2)=NC1c1ccc(F)cc1Br (stereo not drawn)	µM	29.2
CCOC(=O)C1=C(CN2CCN(C(/C=C/c3ccccc3)C(=O)O)CC2)NC(c2nccs2)=NC1c1ccc(F)cc1Br (stereo not drawn)	µM	22.4
CCOC(=O)C1=C(CN2CCN(C(C(=O)O)c3ccc(Br)cc3)CC2)NC(c2nccs2)=NC1c1ccc(F)cc1Br (stereo not drawn)	µM	22.4
CCOC(=O)C1=C(CN2CCN(C(C(=O)O)c3ccccc3C)CC2)NC(c2nccs2)=NC1c1ccc(F)cc1Br (stereo not drawn)	µM	22.4
CCOC(=O)C1=C(CN2CCN(C(C(=O)O)c3ccccc3OC)CC2)NC(c2nccs2)=NC1c1ccc(F)cc1Br (stereo not drawn)	µM	50
CCOC(=O)C1=C(CN2CCN(C(C(=O)O)c3cccc(C(F)F)c3)CC2)NC(c2nccs2)=NC1c1ccc(F)cc1Br (stereo not drawn)	µM	22.4
CCOC(=O)C1=C(CN2CCN(C(C(=O)O)c3ccc4c(c3)OCCO4)CC2)NC(c2nccs2)=NC1c1ccc(F)cc1Br (stereo not drawn)	µM	22.4
CCOC(=O)C1=C(CN2CCN(C(C(=O)O)c3cccc4ccccc34)CC2)NC(c2nccs2)=NC1c1ccc(F)cc1Br (stereo not drawn)	µM	22.4

====

Assay: Selectivity index, ratio of CC50 for cytotoxicity against human HePAD38 cells assessed as reduction in cell viability to EC50 for antiviral activity against HBV infected human HePAD38 cells assessed as reduction of HBV DNA level
Format: toxicity, cell-based
Settings: read-out: Ratio CC50/EC50

COMPOUND	selectivity ratio
CCOC(=O)C1=C(CN2CCN(C(C(=O)O)c3cccc(C(F)(F)F)c3)CC2)NC(c2nccs2)=NC1c1ccc(F)cc1Br (centres undefined)	2.2
CCOC(=O)C1=C(CN2CCN(C(C(=O)O)C3=CCCC3)CC2)NC(c2nccs2)=NC1c1ccc(F)cc1Br (centres undefined)	> 100
CCOC(=O)C1=C(CN2CCN(C(C(=O)O)c3cccc(C)c3)CC2)NC(c2nccs2)=NC1c1ccc(F)cc1Br (centres undefined)	8.9
C#Cc1cccc(C(C(=O)O)N2CCN(CC3=C(C(=O)OCC)C(c4ccc(F)cc4Br)N=C(c4nccs4)N3)CC2)c1 (centres undefined)	< 2.2

====

Biological target: hERG (KCNH2) (Homo sapiens)
Sequence (Q12809 whole entry): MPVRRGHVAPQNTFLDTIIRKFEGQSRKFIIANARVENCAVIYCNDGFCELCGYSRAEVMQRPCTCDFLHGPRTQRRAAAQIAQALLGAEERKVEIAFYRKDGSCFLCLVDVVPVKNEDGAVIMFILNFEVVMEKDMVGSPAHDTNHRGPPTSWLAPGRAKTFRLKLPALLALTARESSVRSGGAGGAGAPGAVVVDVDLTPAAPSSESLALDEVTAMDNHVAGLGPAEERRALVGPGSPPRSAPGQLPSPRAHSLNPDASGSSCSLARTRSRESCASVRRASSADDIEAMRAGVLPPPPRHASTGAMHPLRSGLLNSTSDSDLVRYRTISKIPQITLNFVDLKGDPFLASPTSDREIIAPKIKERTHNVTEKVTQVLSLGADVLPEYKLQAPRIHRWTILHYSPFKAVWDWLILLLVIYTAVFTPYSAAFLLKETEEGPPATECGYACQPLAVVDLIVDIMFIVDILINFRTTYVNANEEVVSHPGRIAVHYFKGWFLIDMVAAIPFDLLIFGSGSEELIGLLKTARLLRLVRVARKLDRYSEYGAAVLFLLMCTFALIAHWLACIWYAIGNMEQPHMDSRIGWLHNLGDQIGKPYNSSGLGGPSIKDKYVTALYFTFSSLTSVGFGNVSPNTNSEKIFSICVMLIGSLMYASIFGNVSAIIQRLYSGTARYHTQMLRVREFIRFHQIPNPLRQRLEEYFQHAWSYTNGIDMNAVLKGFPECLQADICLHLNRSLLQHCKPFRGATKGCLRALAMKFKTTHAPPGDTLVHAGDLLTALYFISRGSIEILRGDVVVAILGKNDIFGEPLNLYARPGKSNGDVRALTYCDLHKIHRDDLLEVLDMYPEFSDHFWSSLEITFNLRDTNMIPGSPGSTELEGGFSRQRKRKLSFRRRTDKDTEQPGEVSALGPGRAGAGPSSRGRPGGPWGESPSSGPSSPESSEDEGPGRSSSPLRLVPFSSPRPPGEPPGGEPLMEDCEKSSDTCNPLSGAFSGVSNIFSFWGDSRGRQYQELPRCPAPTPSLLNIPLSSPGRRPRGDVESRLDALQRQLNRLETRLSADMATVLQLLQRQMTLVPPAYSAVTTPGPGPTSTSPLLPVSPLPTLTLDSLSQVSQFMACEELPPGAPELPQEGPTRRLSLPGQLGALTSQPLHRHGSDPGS
Test: Inhibition of hERG expressed in HEK293 cells at 1 uM at holding potential of -80 mV by whole cell patch clamp assay relative to control
Assay type: toxicity, cell-based
Settings: HEK293 cells expressing hERG
VALUE TYPE: inhibition at 1 µM (%)

COMPOUND	VALUE TYPE	NUMERIC READOUT
CCOC(=O)C1=C(CN2CCN(C(C(=O)O)c3cccc([N+](=O)[O-])c3)CC2)NC(c2nccs2)=NC1c1ccc(F)cc1Br (stereo not drawn)	inhibition at 1 µM	15.7
CCOC(=O)C1=C(CN2CCN(C(/C=C/c3ccccc3)C(=O)O)CC2)NC(c2nccs2)=NC1c1ccc(F)cc1Br (stereo not drawn)	inhibition at 1 µM	11.7
COc1cc(N)c(Cl)cc1C(=O)NC1CCN(CCCOc2ccc(F)cc2)CC1OC (stereo not drawn) [CISAPRIDE]	inhibition at 1 µM	96.7

====

Biological target: CYP1A2 (Homo sapiens, UniProt P05177)
Sequence (P05177 whole entry): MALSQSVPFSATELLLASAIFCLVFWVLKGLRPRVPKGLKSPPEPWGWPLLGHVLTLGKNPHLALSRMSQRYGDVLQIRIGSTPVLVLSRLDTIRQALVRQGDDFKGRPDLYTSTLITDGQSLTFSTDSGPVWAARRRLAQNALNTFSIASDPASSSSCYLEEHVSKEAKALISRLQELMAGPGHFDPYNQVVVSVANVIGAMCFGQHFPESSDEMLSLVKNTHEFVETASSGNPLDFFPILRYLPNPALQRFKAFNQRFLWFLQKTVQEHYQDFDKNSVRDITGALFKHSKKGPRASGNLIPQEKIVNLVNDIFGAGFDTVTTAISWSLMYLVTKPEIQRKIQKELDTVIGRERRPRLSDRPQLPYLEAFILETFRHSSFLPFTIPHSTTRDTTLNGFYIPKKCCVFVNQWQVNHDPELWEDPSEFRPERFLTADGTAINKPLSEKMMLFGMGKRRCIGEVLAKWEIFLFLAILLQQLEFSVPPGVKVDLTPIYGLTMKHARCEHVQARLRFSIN
Experiment: Inhibition of CYP1A2 (unknown origin) at 10 uM using phenacetin as substrate incubated for 10 mins in presence of NADPH by LC-MS/MS analysis relative to control
Type: ADME
Settings: probe phenacetin
VALUE TYPE: inhibition at 10 min, 10 µM (%)

MOLECULE	NUMERIC READOUT
CCOC(=O)C1=C(CN2CCN(C(C(=O)O)c3cccc([N+](=O)[O-])c3)CC2)NC(c2nccs2)=NC1c1ccc(F)cc1Br (stereo not drawn)	8.9
CCOC(=O)C1=C(CN2CCN(C(/C=C/c3ccccc3)C(=O)O)CC2)NC(c2nccs2)=NC1c1ccc(F)cc1Br (stereo not drawn)	0
O=c1cc(-c2ccccc2)oc2c1ccc1ccccc12	88.7

====

Target: hERG (KCNH2) (Homo sapiens)
Test: Inhibition of hERG expressed in HEK293 cells at 10 uM at holding potential of -80 mV by whole cell patch clamp assay relative to control
Type: toxicity, cell-based
Details: HEK293 cells expressing hERG
The compounds listed here are annotated with their inhibition at 10 µM.
VALUE TYPE: inhibition at 10 µM (%)

COMPOUND	NUMERIC READOUT
CCOC(=O)C1=C(CN2CCN(C(C(=O)O)c3cccc([N+](=O)[O-])c3)CC2)NC(c2nccs2)=NC1c1ccc(F)cc1Br (configuration not stated)	72.7
CCOC(=O)C1=C(CN2CCN(C(/C=C/c3ccccc3)C(=O)O)CC2)NC(c2nccs2)=NC1c1ccc(F)cc1Br (configuration not stated)	93.4

====

Test system: Hepatitis B virus
Assay: Antiviral activity against HBV infected human HePAD38 cells assessed as reduction of HBV DNA level with compound replacement for every 3 days and measured on day 6 by qPCR analysis
Format: functional, organism-based
pEC50: −log10 of the molar value.
The molecules listed here are annotated with their pEC50.

MOLECULE	CENSOR SYMBOL	pEC50
CCOC(=O)C1=C(CN2CCOCC2)NC(c2nccs2)=NC1c1ccc(F)cc1Br (centres undefined)	=	8.15
CCOC(=O)C1=C(CN2CCN(C(C(=O)O)c3cccc(O)c3)CC2)NC(c2nccs2)=NC1c1ccc(F)cc1Br (centres undefined)	=	5.62
CCOC(=O)C1=C(CN2CCN(C(C(=O)O)c3cccc(C(F)F)c3)CC2)NC(c2nccs2)=NC1c1ccc(F)cc1Br (centres undefined)	<	5.00
CCOC(=O)C1=C(CN2CCN(C(C(=O)O)c3ccccc3C#N)CC2)NC(c2nccs2)=NC1c1ccc(F)cc1Br (centres undefined)	=	5.27

====

The molecules listed here are annotated with their inhibition at 10 min, 10 µM.
Target: CYP2C19 (Homo sapiens)
Sequence (P33261 whole entry): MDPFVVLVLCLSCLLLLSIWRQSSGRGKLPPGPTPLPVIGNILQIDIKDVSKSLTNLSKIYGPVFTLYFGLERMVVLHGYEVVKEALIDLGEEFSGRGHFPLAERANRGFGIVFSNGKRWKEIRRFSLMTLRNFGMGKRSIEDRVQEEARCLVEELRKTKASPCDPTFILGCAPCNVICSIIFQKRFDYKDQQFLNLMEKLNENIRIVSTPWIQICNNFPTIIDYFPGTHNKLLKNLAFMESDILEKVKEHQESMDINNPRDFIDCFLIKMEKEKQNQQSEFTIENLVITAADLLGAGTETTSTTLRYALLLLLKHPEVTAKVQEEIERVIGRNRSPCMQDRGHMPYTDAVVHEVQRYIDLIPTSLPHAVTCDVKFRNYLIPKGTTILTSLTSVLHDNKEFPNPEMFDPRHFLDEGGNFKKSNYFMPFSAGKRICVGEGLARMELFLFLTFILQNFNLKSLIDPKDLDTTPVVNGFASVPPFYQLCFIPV
Test: Inhibition of CYP2C19 (unknown origin) at 10 uM using s-mephenytoin as substrate incubated for 10 mins in presence of NADPH by LC-MS/MS analysis relative to control
Assay type: ADME
Details: probe S-mephenytoin

MOLECULE	ASSAYED SYSTEM	inhibition at 10 min, 10 µM, %
CCOC(=O)C1=C(CN2CCN(C(/C=C/c3ccccc3)C(=O)O)CC2)NC(c2nccs2)=NC1c1ccc(F)cc1Br (stereo not drawn)	CYP2C19 (Homo sapiens)	18.1
CCOC(=O)C1=C(CN2CCN(C(C(=O)O)c3cccc([N+](=O)[O-])c3)CC2)NC(c2nccs2)=NC1c1ccc(F)cc1Br (stereo not drawn)	CYP2C19 (Homo sapiens)	15.3
CC[C@@]1(c2ccccc2)NC(=O)N(Cc2ccccc2)C1=O	CYP2C19 (Homo sapiens)	89.4

====

The compounds listed here are annotated with their CC50.
Test: Cytotoxicity against human HePAD38 cells assessed as reduction in cell viability by CCK-8 assay
Assay type: toxicity, cell-based
VALUE TYPE: CC50 (µM)

COMPOUND	VALUE UNIT	CENSOR SYMBOL	NUMERIC READOUT
CCOC(=O)C1=C(CN2CCN(C(C(=O)O)c3ccc(F)cc3)CC2)NC(c2nccs2)=NC1c1ccc(F)cc1Br (centres undefined)	µM	=	29.2
CCOC(=O)C1=C(CN2CCN(C(C(=O)O)c3ccc(C)cc3)CC2)NC(c2nccs2)=NC1c1ccc(F)cc1Br (centres undefined)	µM	=	22.4
CCOC(=O)C1=C(CN2CCN(C(C(=O)O)c3ccoc3)CC2)NC(c2nccs2)=NC1c1ccc(F)cc1Br (centres undefined)	µM	>	50
CCOC(=O)C1=C(CN2CCN(C(C(=O)O)c3cccc(C=O)c3)CC2)NC(c2nccs2)=NC1c1ccc(F)cc1Br (centres undefined)	µM	>	50

====

Test: Water solubility of compound in phosphate buffer at pH 7 by HPLC analysis
Type: physicochemical
The molecules listed here are annotated with their solubility.
VALUE TYPE: solubility (µg/mL)

MOLECULE	VALUE TYPE	CENSOR SYMBOL	NUMERIC READOUT
CCOC(=O)C1=C(CN2CCOCC2)NC(c2nccs2)=NC1c1ccc(F)cc1Br (stereo not drawn)	solubility	<	1.19
CCOC(=O)C1=C(CN2CCN(C(/C=C/c3ccccc3)C(=O)O)CC2)NC(c2nccs2)=NC1c1ccc(F)cc1Br (stereo not drawn)	solubility	=	1.96
CCOC(=O)C1=C(CN2CCN(C(C(=O)O)c3cccc([N+](=O)[O-])c3)CC2)NC(c2nccs2)=NC1c1ccc(F)cc1Br (stereo not drawn)	solubility	=	6.85

====

Experiment: Metabolic stability in human liver assessed as intrinsic clearance preincubated for 10 mins followed by NADPH addition and measured after 60 mins by LC-MS/MS analysis
Type: ADME, tissue-based
Conditions: time 70 min, read-out: CLH
The compounds listed here are annotated with their CLint scaled.

COMPOUND	VALUE UNIT	CLint scaled
O=C(O)Cc1ccccc1Nc1c(Cl)cccc1Cl	mL/min/kg	212
CCOC(=O)C1=C(CN2CCN(C(C(=O)O)c3cccc([N+](=O)[O-])c3)CC2)NC(c2nccs2)=NC1c1ccc(F)cc1Br (stereo not given)	mL/min/kg	11.5
CCOC(=O)C1=C(CN2CCOCC2)NC(c2nccs2)=NC1c1ccc(F)cc1Br (stereo not given)	mL/min/kg	596
C[C@]12CC[C@H]3[C@@H](CCC4=CC(=O)CC[C@@]43C)[C@@H]1CC[C@@H]2O	mL/min/kg	117
CCOC(=O)C1=C(CN2CCN(C(/C=C/c3ccccc3)C(=O)O)CC2)NC(c2nccs2)=NC1c1ccc(F)cc1Br (stereo not given)	mL/min/kg	13.3
